target: Cytochrome P450 2D6 (Homo sapiens)
Sequence (P10635 whole entry): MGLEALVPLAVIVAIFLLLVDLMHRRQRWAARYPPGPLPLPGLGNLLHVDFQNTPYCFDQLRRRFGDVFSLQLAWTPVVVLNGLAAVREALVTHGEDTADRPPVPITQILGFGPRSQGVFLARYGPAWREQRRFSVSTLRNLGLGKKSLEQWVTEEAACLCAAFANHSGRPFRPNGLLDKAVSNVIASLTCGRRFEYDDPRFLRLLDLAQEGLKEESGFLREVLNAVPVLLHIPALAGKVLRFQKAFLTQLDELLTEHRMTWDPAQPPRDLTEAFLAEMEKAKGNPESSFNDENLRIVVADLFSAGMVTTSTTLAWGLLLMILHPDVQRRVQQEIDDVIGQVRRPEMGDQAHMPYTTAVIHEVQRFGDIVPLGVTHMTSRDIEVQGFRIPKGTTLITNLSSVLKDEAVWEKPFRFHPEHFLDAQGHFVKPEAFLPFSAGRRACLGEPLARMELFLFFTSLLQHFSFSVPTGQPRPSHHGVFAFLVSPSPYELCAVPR
reported endpoint: pIC50
Scale note: pIC50 = -log10(concentration in M).

Task item: Entry Cn1c(=O)cc(Nc2cc(C(=O)NC3CC3)ccc2Cl)c2cnn(-c3ccc(F)cc3F)c21 , system Cytochrome P450 2D6 (Homo sapiens): what pIC50 was measured?
Reply: 4.64

* * *

We begin with a simple list: items and their reported log10 AUC(0-inf).
assay: AUC (0 to infinity) in Sprague-Dawley rat at 2 mg/kg, po; assay type: ADME, organism-based; set-up: time infinity, dose 2 mg/kg, route oral; details: plasma
Answers are given as log10 of AUC(0-inf) in µg·h/mL.

Answered examples (9):
Cc1ccc(C(=O)NC2CC2)cc1Oc1cc(=O)n(C)c2c1cnn2-c1c(F)cccc1F: -0.61
CCn1c(=O)cc(Nc2cc(C(=O)NC3CC3)ccc2Cl)c2cnn(-c3ccc(F)cc3)c21: 0.36
Cn1c(=O)cc(Nc2cc(C(=O)NC3CC3)ccc2Cl)c2cnn(-c3c(F)cccc3F)c21: -0.86
Cc1ccc(C(=O)NC2CC2)cc1Nc1cc(=O)n(C)c2c1cnn2-c1c(F)cccc1F: -0.56
CONC(=O)c1ccc(C)c(Nc2cc(=O)n(C)c3c2cnn3-c2ccc(F)cc2F)c1: -0.92
CCn1c(=O)cc(Nc2cc(C(=O)NC3CC3)ccc2Cl)c2cnn(-c3ccc(F)cc3F)c21: -0.11
CCn1c(=O)cc(Oc2cc(C(=O)NC3CC3)ccc2C)c2cnn(-c3ccc(F)cc3)c21: 0.18
Cn1c(=O)cc(Nc2cc(C(=O)NC3CC3)ccc2Cl)c2cnn(-c3ccc(F)cc3)c21: 0.82
Cn1c(=O)cc(Nc2cc(C(=O)NC3CC3)ccc2Cl)c2cnn(-c3cc(F)ccc3F)c21: 0.33

Task item: Please look up its log10 AUC(0-inf): Cn1c(=O)cc(Nc2cc(C(=O)NC3CC3)ccc2Cl)c2cnn(-c3ccc(F)cc3F)c21
Reply: 0.66

* * *

biological target: Mitogen-activated protein kinase 10 (Homo sapiens, UniProt P53779); experiment: Inhibition of JNK3
Sequence (P53779 whole entry): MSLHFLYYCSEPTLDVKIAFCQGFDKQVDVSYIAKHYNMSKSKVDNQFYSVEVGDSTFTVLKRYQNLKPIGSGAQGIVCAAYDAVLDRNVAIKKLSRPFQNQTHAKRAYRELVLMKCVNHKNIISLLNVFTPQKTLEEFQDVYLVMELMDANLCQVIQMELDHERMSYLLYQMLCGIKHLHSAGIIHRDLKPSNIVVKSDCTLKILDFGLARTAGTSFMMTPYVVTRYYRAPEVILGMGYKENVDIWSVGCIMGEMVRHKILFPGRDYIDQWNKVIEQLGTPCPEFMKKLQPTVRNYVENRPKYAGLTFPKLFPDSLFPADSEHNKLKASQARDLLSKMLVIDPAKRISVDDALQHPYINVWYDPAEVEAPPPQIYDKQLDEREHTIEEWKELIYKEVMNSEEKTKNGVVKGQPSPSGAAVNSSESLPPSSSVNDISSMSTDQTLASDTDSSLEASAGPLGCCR
pIC50: −log10 of the molar value.
reported endpoint: pIC50

Task item: Which measured pIC50 belongs to Cn1c(=O)cc(Nc2cc(C(=O)NC3CC3)ccc2Cl)c2cnn(-c3ccc(F)cc3)c21 , tested on Mitogen-activated protein kinase 10 (Homo sapiens, UniProt P53779)?
Reply: < 5.00

* * *

target: Mitogen-activated protein kinase 14 (Homo sapiens, UniProt Q16539); test: Inhibition of human recombinant p38alpha assessed as phosphorylation of ATF2 by scintillation proximity assay
Sequence (Q16539 whole entry): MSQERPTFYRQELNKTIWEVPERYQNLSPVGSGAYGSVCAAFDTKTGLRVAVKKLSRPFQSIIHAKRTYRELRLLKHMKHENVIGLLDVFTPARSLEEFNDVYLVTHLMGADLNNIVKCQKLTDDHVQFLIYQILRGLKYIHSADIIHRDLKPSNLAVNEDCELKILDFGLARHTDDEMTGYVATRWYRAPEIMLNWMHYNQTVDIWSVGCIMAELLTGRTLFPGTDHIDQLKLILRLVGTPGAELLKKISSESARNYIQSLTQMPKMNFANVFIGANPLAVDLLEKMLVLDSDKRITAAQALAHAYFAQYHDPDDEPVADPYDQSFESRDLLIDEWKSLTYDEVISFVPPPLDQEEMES
Measured IC50 values are reported for all entries that follow.
I only need the number, in nM, no unit after it.

Worked cases, answers included:
Cc1ccc(C(=O)NC2CC2)cc1Nc1cc(=O)n(C)c2c1cnn2-c1cc(F)ccc1F: 2.9
CCn1c(=O)cc(Nc2cc(C(=O)NC3CC3)ccc2Cl)c2cnn(-c3ccc(F)cc3F)c21: 1.1
CCn1c(=O)cc(Nc2cc(C(=O)NC3CC3)ccc2Cl)c2cnn(-c3ccc(F)cc3)c21: 1.2
Cc1ccc(C(N)=O)cc1Nc1cc(=O)n(C)c2c1cnn2-c1ccc(F)cc1F: 2.6

Moving on to another compound below.
Task item: Identify the measured IC50 of CCn1c(=O)cc(Nc2cc(C(=O)NC3CC3)ccc2C)c2cnn(-c3ccc(F)cc3)c21 for Mitogen-activated protein kinase 14 (Homo sapiens, UniProt Q16539).
Reply: 4
